Taken from the NIST ThermoML archive (doi:10.1016/j.jct.2017.02.024).

Assay: mn = molality of the nth substance listed, in mol/kg
Conditions: 313.15 K; 100 kPa; Liquid; Capillary tube (Ostwald / Ubbelohde) method; m1 = 0.1
Quantity measured: viscosity (mPa·s)
Expressed in mPa·s, but write only the number.

Here are 4 molecules together with their reported answers.
- Molecule: "C[C@@H](O)[C@H](N)C(=O)O [L-threonine] + O"
  U: "mPa·s"
  viscosity: 0.673
- Molecule: "C[C@H](N)C(=O)O [(S)-2-aminopropanoic acid] + O"
  U: "mPa·s"
  viscosity: 0.669
- Molecule: "CC(C)[C@H](N)C(=O)O [L-valine] + O"
  U: "mPa·s"
  viscosity: 0.678
- Molecule: "NCC(=O)O [2-aminoacetic acid] + O"
  U: "mPa·s"
  viscosity: 0.663

In: Look up and state reported viscosity for N=C(N)NCCC[C@H](N)C(=O)O [L-arginine] + O
Out: 0.684

* * *

Assay: mn = molality of the nth substance listed, in mol/kg
Conditions: 313.15 K; 100 kPa; Liquid; Capillary tube (Ostwald / Ubbelohde) method; m2 = 0
Quantity measured: viscosity (mPa·s)
Record the value in mPa·s, omitting the unit from your answer.

# annotated cases, reported viscosity shown
- Compound: "O [water] + C[C@H](N)C(=O)O"
  viscosity (mPa·s): 0.654
- Compound: "O [water] + CC(C)[C@H](N)C(=O)O"
  viscosity (mPa·s): 0.654
- Compound: "O [water] + N=C(N)NCCC[C@H](N)C(=O)O"
  viscosity (mPa·s): 0.654

In: Output measured viscosity for this item: O [water] + OC[C@@H](O)[C@@H](O[C@H]1O[C@H](CO)[C@@H](O)[C@H](O)[C@H]1O)[C@H](O)[C@@H](O)CO
Out: 0.654

In: Read the entry O [water] + NCC(=O)O and write its reported viscosity.
Out: 0.654

In: For the compound O [water] + C[C@@H](O)[C@H](N)C(=O)O , report viscosity.
Out: 0.654

* * *

Test: mn = molality of the nth substance listed, in mol/kg
Conditions: 293.15 K; 100 kPa; Liquid; Capillary tube (Ostwald / Ubbelohde) method; m1 = 0.4
This section presents compounds with their documented viscosity values.
Number in mPa·s, nothing else.

Known viscosity results, listed for orientation:
- Compound: "N=C(N)NCCC[C@H](N)C(=O)O [L-arginine] + O"
  Reported measurement: 1.229
- Compound: "C[C@@H](O)[C@H](N)C(=O)O [L-threonine] + O"
  Reported measurement: 1.143

In: Supply recorded viscosity for NCC(=O)O [2-aminoacetic acid] + O here.
Out: 1.055

In: Identify measured viscosity associated with CC(C)[C@H](N)C(=O)O [L-valine] + O
Out: 1.183

In: Indicate the recorded viscosity value for this compound: C[C@H](N)C(=O)O [(S)-2-aminopropanoic acid] + O
Out: 1.106

In: Return the recorded viscosity value; entry: OC[C@@H](O)[C@@H](O[C@H]1O[C@H](CO)[C@@H](O)[C@H](O)[C@H]1O)[C@H](O)[C@@H](O)CO [4-O-α-D-glucopyranosyl-D-glucitol] + O
Out: 1.457

* * *

viscosity listing for selected compounds.
Assay: mn = molality of the nth substance listed, in mol/kg
Settings: 313.15 K; 100 kPa; Liquid; Capillary tube (Ostwald / Ubbelohde) method; m1 = 0.5
± gives the expanded uncertainty stated by the source.
Please answer in the form of a number followed by its unit of measurement.

Recorded viscosity, per entry:
- Compound: "N=C(N)NCCC[C@H](N)C(=O)O [L-arginine] + O"
  viscosity: "0.825 ± 0.033 mPa·s"
- Compound: "C[C@H](N)C(=O)O [(S)-2-aminopropanoic acid] + O"
  viscosity: "0.733 ± 0.03 mPa·s"
- Compound: "C[C@@H](O)[C@H](N)C(=O)O [L-threonine] + O"
  viscosity: "0.763 ± 0.031 mPa·s"

In: Please look at this compound and report its viscosity: NCC(=O)O [2-aminoacetic acid] + O
Out: 0.704 ± 0.029 mPa·s

* * *

Reported viscosity values follow for various compounds
Experiment: mn = molality of the nth substance listed, in mol/kg
Details: 323.15 K; 100 kPa; Liquid; Capillary tube (Ostwald / Ubbelohde) method; m1 = 0.4
Numbers after ± are expanded uncertainties.
Write the numeric value and follow it with the unit.

Worked cases, viscosity given:
- Compound: "NCC(=O)O [2-aminoacetic acid] + O"
  Reported measurement: "0.582 ± 0.024 mPa·s"
- Compound: "C[C@@H](O)[C@H](N)C(=O)O [L-threonine] + O"
  Reported measurement: "0.615 ± 0.025 mPa·s"
- Compound: "OC[C@@H](O)[C@@H](O[C@H]1O[C@H](CO)[C@@H](O)[C@H](O)[C@H]1O)[C@H](O)[C@@H](O)CO [4-O-α-D-glucopyranosyl-D-glucitol] + O"
  Reported measurement: "0.747 ± 0.03 mPa·s"
- Compound: "C[C@H](N)C(=O)O [(S)-2-aminopropanoic acid] + O"
  Reported measurement: "0.597 ± 0.024 mPa·s"

In: Fill in reported viscosity for this entry: CC(C)[C@H](N)C(=O)O [L-valine] + O
Out: 0.63 ± 0.026 mPa·s

In: Return value of viscosity for input N=C(N)NCCC[C@H](N)C(=O)O [L-arginine] + O , no commentary.
Out: 0.653 ± 0.026 mPa·s

* * *

Test: mn = molality of the nth substance listed, in mol/kg
Details: 303.15 K; 100 kPa; Liquid; Vibrating tube method; m1 = 0.1
± gives the expanded uncertainty stated by the source.
Quantity measured: mass density
Respond with a number, then the unit of measure.

- Molecule: "NCC(=O)O [2-aminoacetic acid] + O"
  Quantity measured: "mass density"
  Reported measurement: "998.81 ± 1.4 kg/m3"
- Molecule: "N=C(N)NCCC[C@H](N)C(=O)O [L-arginine] + O"
  Quantity measured: "mass density"
  Reported measurement: "1000.56 ± 1.4 kg/m3"

In: Note down mass density recorded for C[C@H](N)C(=O)O [(S)-2-aminopropanoic acid] + O
Out: 998.5 ± 1.4 kg/m3

In: Tell me its mass density given CC(C)[C@H](N)C(=O)O [L-valine] + O as the entry.
Out: 998.32 ± 1.4 kg/m3

In: Tell me mass density reported for C[C@@H](O)[C@H](N)C(=O)O [L-threonine] + O
Out: 999.82 ± 1.4 kg/m3

* * *

Assay: mn = molality of the nth substance listed, in mol/kg
Details: 323.15 K; 100 kPa; Liquid; Vibrating tube method; m1 = 0.1
Numbers after ± are expanded uncertainties.
Quantity measured: mass density

- Molecule: "NCC(=O)O [2-aminoacetic acid] + O"
  mass density: "991.09 ± 1.4 kg/m3"
- Molecule: "N=C(N)NCCC[C@H](N)C(=O)O [L-arginine] + O"
  mass density: "992.8 ± 1.4 kg/m3"
- Molecule: "CC(C)[C@H](N)C(=O)O [L-valine] + O"
  mass density: "990.59 ± 1.4 kg/m3"
- Molecule: "C[C@H](N)C(=O)O [(S)-2-aminopropanoic acid] + O"
  mass density: "990.8 ± 1.4 kg/m3"

Next:
In: Provide only the value of recorded mass density for C[C@@H](O)[C@H](N)C(=O)O [L-threonine] + O
Out: 992.09 ± 1.4 kg/m3

* * *

Assay: mn = molality of the nth substance listed, in mol/kg
Conditions: 303.15 K; 100 kPa; Liquid; Vibrating tube method; m1 = 0.7
Quantity measured: mass density (kg/m3)
Quick note: give the figure in kg/m3, leave out the unit.

Recorded mass density, per entry:
- Molecule: "N=C(N)NCCC[C@H](N)C(=O)O [L-arginine] + O"
  Quantity measured: "mass density"
  U: "kg/m3"
  Reported measurement: 1026.94
- Molecule: "NCC(=O)O [2-aminoacetic acid] + O"
  Quantity measured: "mass density"
  U: "kg/m3"
  Reported measurement: 1016.75
- Molecule: "C[C@H](N)C(=O)O [(S)-2-aminopropanoic acid] + O"
  Quantity measured: "mass density"
  U: "kg/m3"
  Reported measurement: 1014.52

// switching to the query molecule
In: Read off the recorded mass density for C[C@@H](O)[C@H](N)C(=O)O [L-threonine] + O
Out: 1023.14

* * *

Assay: mn = molality of the nth substance listed, in mol/kg
Settings: 303.15 K; 100 kPa; Liquid; Capillary tube (Ostwald / Ubbelohde) method; m1 = 0.7
Item-by-item account of viscosity
Write the answer as a number in mPa·s, unit excluded.

In: Find the measured viscosity of C[C@@H](O)[C@H](N)C(=O)O [L-threonine] + O and report it.
Out: 0.999

In: Give viscosity for C[C@H](N)C(=O)O [(S)-2-aminopropanoic acid] + O
Out: 0.943

In: Answer with the recorded viscosity of NCC(=O)O [2-aminoacetic acid] + O only.
Out: 0.881

In: Answer with reported viscosity of N=C(N)NCCC[C@H](N)C(=O)O [L-arginine] + O
Out: 1.121
